Taken from patent US20240368295A1.

biological target: cynomolgus BCMA on 293T-cynoBCMA cells (cynomolgus, UniProt Q02223 1-184 (human entry)); assay: FACS, 293T-cynoBCMA cells
Sequence (Q02223 other isoform, or with tags, fused parts or gaps): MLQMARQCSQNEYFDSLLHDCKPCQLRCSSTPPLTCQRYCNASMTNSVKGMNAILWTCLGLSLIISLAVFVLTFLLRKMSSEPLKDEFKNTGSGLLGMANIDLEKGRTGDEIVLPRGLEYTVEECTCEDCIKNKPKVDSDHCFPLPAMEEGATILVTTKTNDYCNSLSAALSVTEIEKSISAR
Assay Readout: Bmax (MFI)
Write the number in MFI without appending the unit.

Completed entries (count: 2):
10E10 (antibody, V domains shown, chicken HybriFree-derived antibody; also called Antibody 46) VH: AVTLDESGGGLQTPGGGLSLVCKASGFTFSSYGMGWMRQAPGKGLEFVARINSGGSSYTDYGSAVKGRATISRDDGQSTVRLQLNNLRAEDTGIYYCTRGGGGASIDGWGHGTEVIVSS VL: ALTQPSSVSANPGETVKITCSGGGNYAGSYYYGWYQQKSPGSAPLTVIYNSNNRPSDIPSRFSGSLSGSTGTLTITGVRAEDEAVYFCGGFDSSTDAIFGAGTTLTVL ... 4540
9A5 (antibody, V domains shown, chicken HybriFree-derived antibody; also called Antibody 42) VH: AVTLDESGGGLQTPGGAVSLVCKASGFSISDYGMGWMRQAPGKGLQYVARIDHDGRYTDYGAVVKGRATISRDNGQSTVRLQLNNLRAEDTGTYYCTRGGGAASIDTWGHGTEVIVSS VL: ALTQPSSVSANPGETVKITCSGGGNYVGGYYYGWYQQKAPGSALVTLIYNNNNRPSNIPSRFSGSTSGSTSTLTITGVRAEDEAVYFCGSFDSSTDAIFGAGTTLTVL ... 18200

I would be grateful if you could share the reported Bmax (MFI) for 11D6 (antibody, V domains shown, chicken HybriFree-derived antibody; also called Antibody 32) VH: AVTLDESGGGLQTPGGTLSLVCKASGFTFSSFNMFWVRQAPGEGLEWVAYIRNDGRSTSYGPAVKGRATISRDNGQSTVRLQLNNLRAEDTGTYFCAKTTCVGSGGCIDTWGHGTEVIVSS VL: ALTQPSSVSANPGETVEITCSGGNSDYGWFQQKSPGSAPVTVIYRNNQRPSDIPSRFSGSGSGSTNTLTITGVQAEDEAIYYCGNVDFTDDVFGAGTTLTVL .
27700
